readout kind: melting point

>>> test_result("CCCn1c(=O)n2c(-c3ccccc3)nnc2c2[nH]cnc21")
"273 to 280 °C"
>>> test_result("CCOC(=O)c1cn(-c2c(F)cc(F)cc2F)c2nc(Cl)c(F)cc2c1=O")
"158 to 160 °C"
>>> test_result("COc1cc2nc3ccc(F)cc3sc-2cc1=O")
"252 °C"
>>> test_result("Cc1cc(-c2cc(C(F)(F)F)n3ncc(C(=O)Nc4cccc(S(=O)(=O)N5CCOCC5)c4)c3n2)ccc1C(F)(F)F")
"272 °C"
>>> test_result("O=C(O)c1cc(SC(F)(F)F)c(-c2ccc(Cl)cc2)[nH]1")
"176 to 178 °C"
>>> test_result("CN1CCCC(c2cc3ccccc3c(=O)[nH]2)C1 (stereo not given)")
"155 to 156 °C"
>>> test_result("Cc1cc(-c2cccc(C(F)(F)F)c2)nn2cnnc12")
"181 to 183 °C"
>>> test_result("Cc1nnc(-c2cc3c(OC[C@@H](O)CN4CCC(c5cccc6ccccc56)CC4)cccc3[nH]2)o1")
"203 to 205 °C"
>>> test_result("CC(=O)NC1CCCCC1Sc1ccccc1 (stereo not given)")
"132 to 133 °C"
>>> test_result("COC(C)(C)C(C#N)=NO")
"102 to 104 °C"

* * *

Listing: melting point of selected compounds
readout kind: melting point

>>> test_result("O=C(Nc1ccccc1C(F)(F)F)c1cc(-c2ccc(F)cc2F)ccc1O")
"180 to 181 °C"
>>> test_result("O=C1N(Cc2ccc3nonc3c2)c2ccccc2C12COc1cc3c(cc12)CCO3 (configuration not stated)")
"169 to 171 °C"
>>> test_result("CC(=O)OCC1OC(OC(C)=O)C(N=[N+]=[N-])C([N+](=O)[O-])C1OC(C)=O (configuration not stated)")
"118 to 120 °C"
>>> test_result("CC(C)c1nc(CCOC2=CCCCCCC2)n(C)c1Sc1cc(Cl)cc(Cl)c1")
"73 to 74 °C"
>>> test_result("Cc1[nH]c(=O)ccc1C#N")
"> 300 °C"
>>> test_result("O=Cc1c2ccccc2c(C=O)c2cc(Cl)ccc12")
"192 to 195 °C"
>>> test_result("CCOc1nn(-c2ccc(C(F)(F)F)cn2)cc1CCOc1ccc(CC(=O)O)cc1")
"142 to 143 °C"
>>> test_result("CCN1CC(NC(=O)c2ccc(N)cc2)CN1CC")
"119 to 121 °C"
>>> test_result("CNS(=O)(=O)/C=C/c1ccc2c(c1)c(C1CCN(C)CC1)cn2C")
"155 to 159 °C"
>>> test_result("[N-]=[N+]=NC[C@H]1O[C@H]([C@H](O)CO)[C@H](O)[C@@H]1O")
"86 °C"
>>> test_result("CCN(CC)S(=O)(=O)N1CCNC1=O")
"80 to 82 °C"
>>> test_result("Fc1ccc(-c2nc3ccccn3c2-c2ccnc(-c3ccc(CN4CCOCC4)cc3)c2)cc1Cl")
"189 °C"
>>> test_result("C1=Nc2cccc(-c3ccoc3)c2C12COc1cc3c(cc12)OCO3 (configuration not stated)")
"270 to 272 °C"
>>> test_result("COc1ccc2sc(=NN3C(=O)CSC3=S)sc2c1")
"254 to 255 °C"
>>> test_result("OCc1ccc2ncc(C(=S)NCc3ccc(Cl)cc3)c(O)c2c1")
"240 to 242 °C"
>>> test_result("COc1ccc(CCCn2ccnc2S)cc1")
"108 to 109 °C"
>>> test_result("S=c1[nH]nc(C=Cc2ccc3ccccc3c2)o1")
"> 250 °C"
>>> test_result("O=[N+]([O-])c1cccc2c1COCO2")
"76 to 77 °C"
>>> test_result("CC(C)Nc1cccnc1N1CCN(C(=O)c2ccc(C(=O)NC[C@H](C)O)cc2)CC1")
"135 °C"
>>> test_result("NC(=O)CC(CC(N)=O)c1cccc(F)c1")
"194 to 196 °C"
>>> test_result("COc1cc(C)c(-c2c(C)cncc2C)c(C)c1")
"87 to 88 °C"
>>> test_result("Cc1cccc(NC(=O)OCc2ccccn2)c1CNc1cccn2c(C)c(C)nc12")
"163 to 165 °C"

* * *

readout kind: melting point

>>> test_result("c1ccc2c(c1)C[C@H]1CSC(=Nc3csc4ncccc34)N1C2")
"145 to 146 °C"
>>> test_result("CCCCOC(=O)CNC(=O)c1ccc2cc(C(=O)OC)[nH]c2c1")
"181 to 184 °C"
>>> test_result("CC(C)(C)OC(=O)N1CCN(CCCC2(C)Cn3cc([N+](=O)[O-])nc3O2)CC1 (stereo unspecified)")
"166 to 167 °C"
>>> test_result("Cc1ccc2c(O)c(C(=O)O)cnc2c1")
"264 to 265 °C"
>>> test_result("Cc1cccc(NC(=O)NCC(=O)N(CC(=O)N(C)c2ccccc2)c2ccccc2C)c1")
"193 °C"
>>> test_result("COC(=O)c1sc(Br)cc1N")
"173 to 176 °C"
>>> test_result("Cc1ccc2c(=O)n(C3CCC(=O)NC3=O)cnc2c1 (stereo unspecified)")
"313 to 315 °C"
>>> test_result("CCCCCCCCCCCCCCOc1ccccc1CO")
"33 to 34 °C"
>>> test_result("N=C(CF)Nc1cccc(C(N)=O)c1")
"219 to 220 °C"
>>> test_result("O=c1ccsc2c1[nH]c1ccccc12")
"242 to 243 °C"
>>> test_result("O=C(N(CCCc1ccncc1)Cc1ccccc1)N(CCCc1ccccc1)C1CCCCC1")
"107 to 112 °C"

* * *

readout kind: melting point

>>> test_result("CCOC(=O)CCc1cccc(NC(=O)c2cc(-c3ccc(C(F)(F)F)cc3)oc2C)c1")
"134 to 135 °C"
>>> test_result("OC[C@H](O)[C@@H](O)CCNCc1ccccc1")
"117 to 118 °C"
>>> test_result("CC(C)OCc1cc(O)cc2cc(-c3ccc(O)cc3)oc12")
"195 to 197 °C"
>>> test_result("O=C(CC(CSC(=O)c1ccccc1)C(=O)O)c1ccccc1 (stereo unspecified)")
"110 to 111 °C"
>>> test_result("O=C(CCl)NC(=O)Nc1cc(C(F)(F)F)cc(C(F)(F)F)c1")
"170 °C"
>>> test_result("CC(=O)c1ccc(NCc2cc3c(cc2O)CCO3)cc1")
"181 to 183 °C"

* * *

Listing: melting point of selected molecules
readout kind: melting point (°C)

>>> test_result("O=C(CCC[C@H](O)c1ccc(F)cc1)N1C(=O)OC[C@@H]1c1ccccc1")
39.7
>>> test_result("CC(=O)c1cccc2c1[C@@H](NC(=O)c1ccc(F)cc1)[C@H](O)C(C)(C)O2 (relative stereo)")
175

* * *

Listing: melting point of selected molecules
readout kind: melting point

>>> test_result("Clc1ncnc2c1CCOc1ccccc1-2")
"114 to 115 °C"
>>> test_result("CCOC(=O)Cc1c[nH]c2cc(C(F)(F)F)nn2c1=O")
"290 to 293 °C"
>>> test_result("C=CCN1C(=O)C(O)(CC(=O)N(C)C)c2cc(CO)ccc21 (stereo unspecified)")
"125 °C"
>>> test_result("O=C(O)c1ccc(C(=O)N2CCCc3ccccc32)cc1")
"181 to 183 °C"
>>> test_result("CC[C@@H](O)C1(c2onc(-c3ccc(O)cc3)c2-c2ccccc2)CC1")
"163 to 164 °C"
>>> test_result("C1COCCNCCSCCN1")
"74 to 76 °C"
>>> test_result("CCOC(=O)c1c(C(F)(F)F)nc2c(C(F)(F)F)cccc2c1O")
"68 °C"
>>> test_result("COC=C(C(=O)OC)N(C)c1cccc(-c2ccccc2)n1")
"89 to 90 °C"
>>> test_result("Cc1nn(-c2c(Cl)cc(C(F)(F)F)cc2Cl)nc1C(=O)O")
"185 to 186 °C"
>>> test_result("CC(CSC(=O)c1ccccc1)C(=O)N1c2ccccc2CC1C(=O)O (stereo unspecified)")
"116 to 117 °C"
>>> test_result("CC(C)(NS(=O)(=O)c1ccccc1)c1ccccc1")
"114 to 115 °C"

* * *

readout kind: melting point

>>> test_result("CC(C)(C)C1CCCC(=Cc2ccc(Cl)cc2)C1(O)Cn1cncn1 (configuration not stated)")
"171 °C"
>>> test_result("CC(C)C[C@H](OC(=O)N1CCCCCC1)C(=O)O")
"86 to 88 °C"
>>> test_result("Oc1ccc(O)c2nccnc12")
"234 to 236 °C"
>>> test_result("COC(=O)c1ccc(C)c(-c2cc3cnc(NC4CCOCC4)nc3n(C)c2=O)c1")
"122 to 126 °C"
>>> test_result("OCC1Oc2cccc(F)c2OC1CO (configuration not stated)")
"122 to 124 °C"
>>> test_result("O=c1n(CCO)c2cc(Br)c(Br)c(Br)c2n1CCO")
"201 to 204 °C"
>>> test_result("CNc1nc(-c2cccc(NC(=O)c3ccc(Cl)c(Cl)c3)c2)c2cc(OC)c(OC)cc2n1")
"134 to 136 °C"
>>> test_result("Clc1ncnc2c1c(I)cn2C1CCOC1 (configuration not stated)")
"184 to 186 °C"
>>> test_result("Cn1cc(C(=O)C(=O)Oc2c(F)c(F)c(F)c(F)c2F)c2ccccc21")
"168 to 169 °C"
>>> test_result("COc1ccnc(C(=O)N[C@H]2COC[C@H](OCc3ccccc3)[C@@H](OCc3ccccc3)[C@H](C)OC2=O)c1O")
"144 to 146 °C"
>>> test_result("O=[N+]([O-])c1ccc(C(O)C(CO)[N+](=O)[O-])cc1 (configuration not stated)")
"105 to 107 °C"
>>> test_result("CC(C)n1c(=O)n(CC#N)c2cc(-c3ncc(C(F)(F)F)cc3Cl)ccc21")
"158 to 159 °C"
>>> test_result("COc1ccc2cc(-c3noc(C)n3)c(=O)oc2c1")
"218 to 220 °C"
>>> test_result("CCCCNc1n[nH]c(C)c1C(=O)OCC")
"109 to 110 °C"
>>> test_result("C=C(CC(=O)OCC)c1cc(F)c2cc(OC)ccc2c1")
"50 to 52 °C"
>>> test_result("N#Cc1c(NCCCN2CCCC2)ncc2c1-c1ccccc1C(c1ccc(Cl)c(Cl)c1)C2 (configuration not stated)")
"104 to 110 °C"
>>> test_result("COc1cc(C2=C(c3cn(CCCNC(=O)C(CO)NC(=O)OC(C)(C)C)c4ccccc34)C(=O)NC2=O)cc(OC)c1OC (configuration not stated)")
"112 to 114 °C"
>>> test_result("C[C@H](NC(=O)c1c[nH]c2ncc(-c3ccc(C(=O)NCc4cccc(C#N)c4)s3)nc12)C(C)(C)C")
"171 to 174 °C"
>>> test_result("Clc1ccc2c(c1)C(c1ccccc1)=NCC1CNCCN21 (configuration not stated)")
"132 to 135 °C"
>>> test_result("O=C(C#Cc1ccc(-c2ccc(Cl)cc2)cn1)Nc1ccc(CN2CCC(O)CC2)cc1")
"186 to 190 °C"
>>> test_result("COc1cc2c(Nc3ccc(Sc4nccn4C)c(Cl)c3)c(C#N)cnc2cc1/C=C/CCO")
"273 to 278 °C"
>>> test_result("Cc1cc2c(nc1C(O)c1ccccc1)CCCCC2 (configuration not stated)")
"130 to 132 °C"
>>> test_result("COC(=O)C1CCC2(C)C(=CC(=O)C3C2CCC2(C)C(C(=O)OC)CCC32)C1 (configuration not stated)")
"167 to 169 °C"
>>> test_result("Fc1ccc2[nH]c(C3=Cc4ccccc4C3)cc2c1")
"272 to 275 °C"
>>> test_result("COc1cc2cc(-c3ccc(=O)[nH]n3)sc2cc1OC")
"> 300 °C"
>>> test_result("CC(=O)N1CCN(c2ccc(N)cc2)CC1")
"142 to 144 °C"
>>> test_result("CC(C)(C)c1ccc(CBr)cc1NC(=O)CC1c2ccccc2Oc2ccccc21")
"229 to 231 °C"
>>> test_result("CC(C)(C)OC(=O)N[C@H](Cc1c[nH]c2ccccc12)C(N)=O")
"142 to 143 °C"
>>> test_result("CCc1nccn1CCCOCc1cccc(SC)c1NC(=O)CC1c2ccccc2Oc2ccccc21")
"159 to 160 °C"
>>> test_result("CN1CCc2c(c(P(=O)(O)O)cc3[nH]c(=O)c(=O)[nH]c23)C1")
"> 325 °C"
>>> test_result("Nc1cc(N2CCN(C34CC5CC(CC(C5)C3)C4)CC2)nc(N)n1")
"265 to 268 °C"
>>> test_result("Cc1cc(C(=O)NC(=N)N)no1")
"192 °C"
>>> test_result("OC1CSC(Oc2cncc(-c3ccc(N4CCCCC4)cc3)c2)C(O)C1O (configuration not stated)")
"196 °C"
>>> test_result("NC1=C2C=NN=C2N(c2ccccc2)CN1Cc1ccccc1")
"167 to 168 °C"
>>> test_result("CN1CC(O)N(c2nnc(SCc3cccs3)s2)C1=O (configuration not stated)")
"129 to 132 °C"
>>> test_result("CC[C@H]1[C@H](O)CN1c1cc2c(cc1F)c(=O)c(C(=O)O)cn2C1CC1 (relative stereo)")
"250 to 255 °C"
>>> test_result("CCCCCCNc1cccc2c1C(=O)c1cccc(NCCCCCC)c1C2=O")
"142 to 144 °C"
>>> test_result("CC(N1CCC(n2c(=O)[nH]c3ccccc32)CC1)N1Sc2ccccc2C1C(N)=O (configuration not stated)")
"174 to 177 °C"
>>> test_result("CCOC(=O)c1cnc(Cl)nc1NCc1ccc(OC)c(Cl)c1")
"114 to 115 °C"
>>> test_result("CCOC(=O)C=C(C)Nc1ccc2nc[nH]c2c1")
"160 to 162 °C"
>>> test_result("CCOC(=O)c1cc2cc(-c3ccc(Cl)cc3)ccc2o1")
"108 to 110 °C"
>>> test_result("O=c1[nH]c2cc(F)c(F)cc2n2ccnc12")
"> 300 °C"
